B1: Twister Ribozyme (parent)
chain: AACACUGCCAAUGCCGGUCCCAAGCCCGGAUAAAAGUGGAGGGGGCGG

variants of: B1; assay: self-cleavage, relative activity (ratio to wild type); higher = more cleavage; co-transcriptional
// label = 1.0 if self-cleavage is not less than 0.3, otherwise 0.0

>>> category_label("AACACUGCCAAUGCCGGUCCCAAGCGCGGAUAAACGUGGAGGGGGCGG [C26G A35C]")
1.0
>>> category_label("AACACUGCCAACGCCGGUCCCAAGCCUGGAUAAAAGUGGAGGGGGCGG [U12C C27U]")
1.0
>>> category_label("AACACUCCCAAUGCCGGUCCCAAGCCCGGAUAAAAGGGGAGGGGGCGG [G7C U37G]")
0.0
>>> category_label("AACACUGCCAAUGCCGGUCCCAAGCCCGGAUAAAAGUGGAGUGGGCGC [G42U G48C]")
1.0
>>> category_label("AACACUGCCAGUGCCGGUCCCAAGCCCGGAUAGAAGUGGAGGGGGCGG [A11G A33G]")
1.0
>>> category_label("AACACUGCCAAUGCCGUUCCCAAGCCCGGAUAAAAGUGGAGGGGGAGG [G17U C46A]")
0.0
>>> category_label("AACACUGCCAAUGCCGGUCCCAAGCCGGGAUAGAAGUGGAGGGGGCGG [C27G A33G]")
0.0
>>> category_label("AACACUGCCAAUCCCGGUCCCAAGCCCUGAUAAAAGUGGAGGGGGCGG [G13C G28U]")
0.0
>>> category_label("AACACUCCCAAUGCCGGUCCCAAGCCCGGAUAAAAGUGGGGGGGGCGG [G7C A40G]")
0.0
>>> category_label("AACACGGCCAAUGCCGGUCCCAACCCCGGAUAAAAGUGGAGGGGGCGG [U6G G24C]")
1.0
>>> category_label("CACACUGCCUAUGCCGGUCCCAAGCCCGGAUAAAAGUGGAGGGGGCGG [A1C A10U]")
0.0
>>> category_label("AACACUGCCAAUGACGGUCCCAAGCCCGGAUUAAAGUGGAGGGGGCGG [C14A A32U]")
1.0
>>> category_label("AACACUGCCAAUGCCUGUCCCAAGCCCGGAUAAAAGUGGAGGGAGCGG [G16U G44A]")
1.0
>>> category_label("AACACUGCCAAUGCCGGUCUCAAGCGCGGAUAAAAGUGGAGGGGGCGG [C20U C26G]")
0.0
>>> category_label("ACCACUGCCAAUGCCGGUCCCAAGCCAGGAUAAAAGUGGAGGGGGCGG [A2C C27A]")
0.0
>>> category_label("AACACUGCCAAUGCCGGUCCCAAGCCCGGCUAAUAGUGGAGGGGGCGG [A30C A34U]")
1.0
>>> category_label("AACACUGCCAAUGCCGCUCCCAAGCCCGGAUAACAGUGGAGGGGGCGG [G17C A34C]")
0.0
>>> category_label("AACACCGCCAAUGCCGGUCCCAAGCCCGGAUAAAAGUGGAGGGGGUGG [U6C C46U]")
1.0
>>> category_label("AACACUGCCAAUGCCGGUCCUAAGCCCGCAUAAAAGUGGAGGGGGCGG [C21U G29C]")
0.0
>>> category_label("AACACUGCCAAUGCCGGUCCCAAGCCCGGAUAAAGGUGCAGGGGGCGG [A35G G39C]")
0.0
>>> category_label("AACACUGCCAUUGCCGGUCCCAAGCCCGGAUAAAAGUGGAGUGGGCGG [A11U G42U]")
1.0
>>> category_label("AACACUGCCAAUGCCGGUCCCCAGCCCGGAUAAGAGUGGAGGGGGCGG [A22C A34G]")
1.0
>>> category_label("AACACUGCCAAUGCCGGUCCUAAGCCCGGAUAAAACUGGAGGGGGCGG [C21U G36C]")
0.0
>>> category_label("AACACUGCCGAUGCCGGUCCCAAGCCCGGAUAUAAGUGGAGGGGGCGG [A10G A33U]")
1.0
>>> category_label("AACAGCGCCAAUGCCGGUCCCAAGCCCGGAUAAAAGUGGAGGGGGCGG [C5G U6C]")
0.0
>>> category_label("AACACCGCCAAUGCCGGUCCCAAGCCCGGAUAAAAGUGGAGGGUGCGG [U6C G44U]")
1.0
>>> category_label("AACACUGCCAAUGCCGGUCCCAAGCCCGGAUAAAAGAGGAGAGGGCGG [U37A G42A]")
0.0
>>> category_label("AACACUGCCAAUGUCGGUCCCAAGCCCGGAUAAAAGUGGAGGGGGCGG [C14U]")
1.0
>>> category_label("AACACCGCCAAUGCCGGUCCCAGGCCCGGAUAAAAGUGGAGGGGGCGG [U6C A23G]")
0.0
>>> category_label("AACACUGCCAAUGCCGGUCCCAAGCCCGGAUCAAACUGGAGGGGGCGG [A32C G36C]")
0.0
>>> category_label("AACACUGCCAAUGCUGGUCCCAAGCCCGGAUAAAAGUGGAGGGGGCGC [C15U G48C]")
1.0
>>> category_label("AACACUACCAAUGCCGGUCCGAAGCCCGGAUAAAAGUGGAGGGGGCGG [G7A C21G]")
0.0
>>> category_label("AACACUGCCAACGCCGGUCCCAAGCCCGGAUAAAAGUGGGGGGGGCGG [U12C A40G]")
0.0
>>> category_label("AACACUGCCAAUGCCGGUCCCAAUCCCGGACAAAAGUGGAGGGGGCGG [G24U U31C]")
0.0
>>> category_label("AACACUGCCAAUGCCGGUCCCAACCCCGGAUAAAAGUGCAGGGGGCGG [G24C G39C]")
0.0
>>> category_label("AACACUGCCAGUGCCGGUCCCAAGCCCGUAUAAAAGUGGAGGGGGCGG [A11G G29U]")
1.0
>>> category_label("AACACUGCAAAUGCCGGUCCCAUGCCCGGAUAAAAGUGGAGGGGGCGG [C9A A23U]")
0.0
>>> category_label("AACACUGCCAAUGCCGGUCCCAAGCCCGUAUAAAAGUGGAGGGGGUGG [G29U C46U]")
1.0
>>> category_label("AUCACUGCCAAUGCCGGUCCCAAGCCCGGAUAAAAGUAGAGGGGGCGG [A2U G38A]")
1.0
>>> category_label("AACACUGCCAAUGCCGGUCCCAAGCCCGGAUAAAAGUUGAGGAGGCGG [G38U G43A]")
0.0
>>> category_label("AACACUGCCCAUGCCGGUCCCAAGCGCGGAUAAAAGUGGAGGGGGCGG [A10C C26G]")
0.0
>>> category_label("AACACUGCCAAUGCCGGCCCCGAGCCCGGAUAAAAGUGGAGGGGGCGG [U18C A22G]")
0.0
>>> category_label("AACACUGCCAAUGCCGGUCCCAGGCCCGGAUAAAAGUGGAUGGGGCGG [A23G G41U]")
0.0
>>> category_label("AACACUGCCAAUGCCGGACCCAAGCCCGGAUAAAAGUGGAGGGAGCGG [U18A G44A]")
1.0
>>> category_label("AACACUGCCAAUGCCGGUCCGAAGCCCGGAUAAAAAUGGAGGGGGCGG [C21G G36A]")
0.0
>>> category_label("AACACUGCCAAUGCCGGUCCCAAGACCGGAUAAAAGUGGAGGUGGCGG [C25A G43U]")
0.0
